Recorded values, source patent US12110282B2.

System: healthy rats
MEASUREMENT_PROTOCOL: content of aminotransferase in the serum of healthy rats after oral administration for 15 days
Type: in vivo
PARTICULARS: serum of healthy rats; oral administration for 15 days; n=10
Structures can show the parent of a compound that is named as a salt.
VALUE_TYPE: AST (U/L)
Value expressed in U/L; do not type the unit.

CS(=O)(=O)Nc1cc2scc(NC=O)c(=O)c2cc1S(=O)(=O)c1ccccc1 [Compound 4 sodium salt]
83
CS(=O)(=O)Nc1cc2scc(NC=O)c(=O)c2cc1Oc1ccccc1 [Compound 1 sodium salt]
76
CS(=O)(=O)Nc1cc2scc(NC=O)c(=O)c2cc1[S+]([O-])c1ccccc1 (stereo not shown) [Compound 3 potassium salt]
89
CS(=O)(=O)Nc1cc2occ(NC=O)c(=O)c2cc1Oc1ccccc1 [Iguratimod, reference compound]
145

# input Fill in: AST of CS(=O)(=O)Nc1cc2scc(NC=O)c(=O)c2cc1[S+]([O-])c1ccccc1 (stereo not shown) [Compound 3 sodium salt] is ___
# output 87

# input What does the data say about its AST? Entry: CS(=O)(=O)Nc1cc2scc(NC=O)c(=O)c2cc1S(=O)(=O)c1ccccc1 [Compound 4 potassium salt]
# output 85

# input Bench note: what AST did CS(=O)(=O)Nc1cc2scc(NC=O)c(=O)c2cc1Sc1ccccc1 [Compound 2 sodium salt] show?
# output 76
